# credit: patent US5965434A

assay: physchem; settings: 0.5% triton x-100
result-type: pKa

{"columns": ["compound", "result"],
 "data": [
  ["CC(C)CCC[C@@H](C)[C@H]1CC[C@H]2[C@@H]3CC=C4C[C@@H](OC(=O)NCCCn5ccnc5)CC[C@]4(C)[C@H]3CC[C@]12C [Compound 6]", 6],
  ["CC(C)CCC[C@@H](C)[C@H]1CC[C@H]2[C@@H]3CC=C4C[C@@H](SSCCN)CC[C@]4(C)[C@H]3CC[C@]12C [Compound 5]", 6.8],
  ["CCCCCCCCCCCCCCCC(=O)OCC(CNc1ccncc1)OC(=O)CCCCCCCCCCCCCCC (stereo not shown) [Compound 8]", 5.3],
  ["CCCCCCCCCCCCCCCC(=O)OCC(CSc1nccn1C)OC(=O)CCCCCCCCCCCCCCC (stereo not shown) [Compound 4]", "< 3.5"]
]}
